Tested on: MDA-MB-231 breast
methodSummary: NCI tumour cell line growth inhibition, 48 h
valueKind: GI50

smilesdata=O=C(NNS(=O)(=O)c1cc(C(F)(F)F)cc(C(F)(F)F)c1)c1cnn(-c2ccc(Cl)cc2)c1C(F)(F)F targetsystem="MDA-MB-231 breast" valuekind=GI50 resultvalue="19.6 µM"
smilesdata=COc1ccccc1-n1c(SCc2cc(OC)c(OC)c(OC)c2)nc2ccc(Cl)cc2c1=O targetsystem="MDA-MB-231 breast" valuekind=GI50 resultvalue="4.24 µM"
smilesdata=CCNCCNc1cc(-c2ccc(F)cc2)c(C#N)c2nc3ccccc3n12 targetsystem="MDA-MB-231 breast" valuekind=GI50 resultvalue="2.73 µM"
smilesdata=FC(F)(F)c1ccc(-c2cnc(Br)nc2NC2CCCCCC2)cc1 targetsystem="MDA-MB-231 breast" valuekind=GI50 resultvalue="12.3 µM"
